Entry source: ChEMBL document CHEMBL3433997

Some compounds, each annotated with its measured inhibition.
- STUDY_SYSTEM: Solute carrier family 2, facilitated glucose transporter member 1 (Homo sapiens)
- EXPERIMENT_NOTES: ST_JUDE_LEISH: Cytotoxicity at 2uM final concentration against transgenic Leishmania Mexicana promastigotes LmGLUT1 that are glucose transport deficient and complemented with the human glucose transporter GLUT1. Activity is measured by DNA content using SYBR green in vitro
- Format: functional
Write down the numeric answer in % and omit the unit.

Worked cases, inhibition given:
Record summary for CCN(CC)CCN1C(=O)c2oc3ccc(F)cc3c(=O)c2C1c1cccc(Cl)c1 (centres undefined) : reported inhibition = -2.07

Record "CN1CCN(CC(=O)Nc2cccc(-c3ccc(-c4nc5cc(F)ccc5[nH]4)s3)c2)CC1" , field inhibition: 7.26

"O=C(NCCN1CCCC1)N1CCCN(c2ncnc3cc(-c4ccc(Cl)cc4)sc23)CC1" has a reported inhibition of 0.21

So, "O=c1[nH]ccc2nc(N[C@@H]3CCCNC3)nc(Nc3ccc(S(=O)(=O)N4CCOCC4)cc3)c12" ? Its inhibition was 0.92

Lab note: "Cc1cc(-c2ccc(NC(=O)N3CCc4cc(Br)c(N5CCN(C)CC5)cc43)cc2)ccc1C#N" gave inhibition of 11.9

Further cases:
Sure, the documented inhibition for "Nc1ccc(-c2nc3cc(Cc4ccc5[nH]c(-c6ccc(N)cc6)nc5c4)ccc3[nH]2)cc1" is 0.06

Looking up "COC(=O)c1ccc2nc(-c3ccc(C(=O)NCc4ccc(Cl)c(Cl)c4)cc3)[nH]c2c1" , I found its inhibition recorded as 3.81

get_value(item= CCN(CC)CCn1c(=N)n(CC(O)c2ccc(Cl)c(Cl)c2)c2ccccc21 (centres undefined) , readout=inhibition) returns 7.87

# inhibition (compound: "Cc1cccc2nc(-c3cccc(-c4cccc(C(=O)NCc5nccn5C)c4)c3)[nH]c12" ) is 11.5
